# reported normalized growth; entries follow
- protocol.text: chemical genetic growth profiling, strain panel (AID 1159580);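 note: tested at 20 µM; growth read once vehicle control cultures reached saturation at 30 °C; 1 = growth at the plate median or of vehicle wells; lower values mean less growth of the strain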
- condition.label: S. cerevisiae deletion strains, growth OD, locus YDL101C, strain DUN1, active compounds read low
The whole screen tested about 5,500 compounds, of which about 2,000 (36%) were called active. About 18% were inconclusive and are not listed. This is one part of the list.
value.type: normalized growth

> print(dat)
                                   molecule         value.type  endpoint.result
1  COC(=O)C1=CO[C@@H](O[C@@H]2O[C@H](CO)[C@@H](O)[C@H](O)[C@H]2O)[C@@H]2[C@@H](C)[C@@H](O)C[C@H]12  normalized growth            0.996
2  CC1=C2CCC3C(CC[C@]4(C)C(=O)CCC34)[C@@]2(C)CCC1=O (some centres not stated)  normalized growth            0.986
3  O=C1OC(Nc2ccccc2SCc2ccccc2Cl)c2ccccc21 (configuration not stated)  normalized growth            0.971
4  CCOC(=O)C1=C(C)NC(C)=C(C(=O)OC)C1c1cccc([N+](=O)[O-])c1 (configuration not stated)  normalized growth                1
5                   CCOC(=N)c1ccc(F)c(Cl)c1  normalized growth            0.992
6  O=C(OCc1ccc(Oc2ccc(Cl)cc2Cl)c([N+](=O)[O-])c1)c1ccc([N+](=O)[O-])o1  normalized growth             0.98
7  O=C(SCc1c(Cl)cccc1Cl)c1ccc([N+](=O)[O-])o1  normalized growth            0.978
